Catalogue of IC50 values
- measured-target: AHR (Homo sapiens)
- Construct: U87 glioblastoma cells (ATCC) endogenously expressing AHR; host or cells: U87 glioblastoma cells, stably transfected with DRE-firefly luciferase and renilla reporter constructs
- Sequence (P35869 11-848): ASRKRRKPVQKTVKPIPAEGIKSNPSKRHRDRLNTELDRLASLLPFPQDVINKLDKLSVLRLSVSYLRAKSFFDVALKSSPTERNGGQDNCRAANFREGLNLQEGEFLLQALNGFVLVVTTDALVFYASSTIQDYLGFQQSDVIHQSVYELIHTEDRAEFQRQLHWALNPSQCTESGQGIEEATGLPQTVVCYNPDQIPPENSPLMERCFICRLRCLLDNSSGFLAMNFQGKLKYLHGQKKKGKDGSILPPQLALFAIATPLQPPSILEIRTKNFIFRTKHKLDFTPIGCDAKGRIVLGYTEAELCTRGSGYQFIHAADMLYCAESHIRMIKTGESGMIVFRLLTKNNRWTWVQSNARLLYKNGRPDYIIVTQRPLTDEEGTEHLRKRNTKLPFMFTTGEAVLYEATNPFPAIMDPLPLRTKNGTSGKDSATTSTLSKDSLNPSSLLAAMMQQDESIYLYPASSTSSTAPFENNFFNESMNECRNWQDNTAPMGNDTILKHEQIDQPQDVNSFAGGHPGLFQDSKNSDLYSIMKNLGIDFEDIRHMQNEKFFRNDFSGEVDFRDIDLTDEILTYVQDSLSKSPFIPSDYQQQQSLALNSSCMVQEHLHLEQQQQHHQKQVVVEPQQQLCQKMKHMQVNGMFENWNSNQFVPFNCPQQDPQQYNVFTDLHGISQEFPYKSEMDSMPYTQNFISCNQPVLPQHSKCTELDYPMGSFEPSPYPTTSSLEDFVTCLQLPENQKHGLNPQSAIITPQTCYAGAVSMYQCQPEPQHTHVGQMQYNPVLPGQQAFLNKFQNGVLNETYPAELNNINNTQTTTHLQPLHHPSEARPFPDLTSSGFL
- assay-protocol: In vitro assay 1: AHR-luc transactivation assay, antagonism in human cell line (U87 glioblastoma cells prestimulated with kynurenic acid)
- Type: cell-based
attribute-measured: IC50 (nM)

> print(dat)
                                    compound  reported
 1  O=C(N[C@H]1COC[C@H]1O)c1cc(-c2ccc(C(F)F)nc2)nn(-c2cccc(F)c2)c1=O [Example 33]      75.1
 2  C[C@@H](NC(=O)c1cc(-c2ccc(N(C)C)nc2)nn(-c2cccc(F)c2)c1=O)C(C)(C)O [Example 19]      91.9
 3  C[C@@H](CO)NC(=O)c1cc(-c2ccc(C(F)F)nc2)nn(-c2cccc(F)c2)c1=O [Example 13]       157
 4  O=C(N[C@@H]1CSC[C@@H]1O)c1cc(-c2ccc(C(F)(F)F)nc2)nn(-c2cccc(F)c2)c1=O [Example 26]      5740
 5  C[C@@H](CO)NC(=O)c1cc(-c2ccc(C(F)(F)F)nc2)nn(-c2cc(F)cc(F)c2)c1=O [Example 1]      7.14
 6  COc1ccc(-c2cc(C(=O)N[C@@H](C)CO)c(=O)n(-c3cccc(F)c3)n2)cn1 [Example 21]       128
 7  N#C[C@@H](CO)NC(=O)c1cc(-c2ccc(C(F)F)nc2)nn(-c2cccc(F)c2)c1=O [Example 32]      55.9
 8  O=C(N[C@H]1COC[C@@H]1O)c1cc(-c2ccc(C(F)F)nc2)nn(-c2cccc(F)c2)c1=O [Example 38]       370
 9  O=C(N[C@H](CO)C1CC1)c1cc(-c2ccc(C(F)F)nc2)nn(-c2cccc(F)c2)c1=O [Example 29]      15.1
10  O=C(NCC1(O)CCCCC1)c1cc(-c2ccc(C(F)F)nc2)nn(-c2cccc(F)c2)c1=O [Example 31]      31.8
11  C[C@@H](CO)NC(=O)c1cc(-c2ccc(C(F)(F)F)nc2)nn(-c2cccc(Cl)c2)c1=O [Example 4]       128
12  O=C(NC[C@H](O)C(F)F)c1cc(-c2cnc(C(F)(F)F)nc2)nn(-c2cccc(F)c2)c1=O [Example 15]       307
13  O=C(N[C@H]1COCC[C@H]1O)c1cc(-c2ccc(C(F)F)nc2)nn(-c2cccc(F)c2)c1=O [Example 35]       174
